Below: a set of entries, each annotated with reported EC50.
Target: T1, recombinant human IgE (human, UniProt P01854-1 1-428)
T1 construct: made in-house (ALK); preloaded on immobilised FcεRIα in the displacement ELISA
T1 sequence (P01854 other isoform, or with tags, fused parts or gaps): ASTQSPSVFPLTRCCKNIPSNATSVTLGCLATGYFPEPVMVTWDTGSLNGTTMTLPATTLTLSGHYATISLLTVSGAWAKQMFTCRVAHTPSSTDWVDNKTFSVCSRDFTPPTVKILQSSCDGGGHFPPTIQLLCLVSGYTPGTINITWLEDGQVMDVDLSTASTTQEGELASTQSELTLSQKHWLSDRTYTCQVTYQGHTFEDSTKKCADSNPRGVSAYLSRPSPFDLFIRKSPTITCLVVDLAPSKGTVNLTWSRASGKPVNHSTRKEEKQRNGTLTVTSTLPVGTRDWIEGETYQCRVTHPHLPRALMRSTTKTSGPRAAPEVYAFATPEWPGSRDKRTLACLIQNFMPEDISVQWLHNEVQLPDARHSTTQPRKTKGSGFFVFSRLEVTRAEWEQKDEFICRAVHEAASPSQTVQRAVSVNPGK
Assay: IgE-FcεRIα displacement ELISA
Your answer is read as nM, so omit the unit and give the number.

Example cases with answers are listed next.
binder: F1A1(G4S)4 (bispecific antibody) DVQLQESGGGLVQAGGSLKLSCAASGGSLSRYDMGWFRQAPGKEREFVARISWSGTTKYYADAVKGRFAISRDNAKNTVYLQMNSLKPEDTAVYYCAAAFYGNRGYYDVNAYTSSGQGTQVTVSGGGGSGGGGSGGGGSGGGGSEVQLLESGGGLVQPGGSLRLSCAASGFTFGNYDMAWVRQAPGKRPEWVSSIDTGGDITHYADSVKGRFTISRDNAKNTLYLQMNSLRPEDTAVYWCATDEEYALGPNEFDYYGQGTLVTVS
EC50 [nM]: 4000
--
binder: sdAb A2 (VHH, also called A1 triple mutant (T28R, P45Y, V93E)) VHH: EVQLLESGGGLVQPGGSLRLSCAASGFRFGNYDMAWVRQAPGKRYEWVSSIDTGGDITHYADSVKGRFTISRDNAKNTLYLQMNSLRPEDTAEYWCATDEEYALGPNEFDYYGQGTLVTVS
EC50 [nM]: 250
--
binder: A1D2(G4S)4 (bispecific antibody) EVQLLESGGGLVQPGGSLRLSCAASGFTFGNYDMAWVRQAPGKRPEWVSSIDTGGDITHYADSVKGRFTISRDNAKNTLYLQMNSLRPEDTAVYWCATDEEYALGPNEFDYYGQGTLVTVSGGGGSGGGGSGGGGSGGGGSDVQLQESGGGLVEAGGSLRLSCVASGRTFSGWSMGWFRQAPGKEREFVAAISWVGSWIGGTVYSNSVKGRFTISRDNARTTVYLQMNSLKPEDTAVYFCAAANSETPRIFASEYDYWGQGTQVTVS
EC50 [nM]: 10

Endpoint output: EC50 of F5A1(G4S)4 (bispecific antibody) DVQLQESGGGLVQPGGSLRLSCAASGSIFSIDIMGWYRQAPGKQRELVATMPEGNYINYADSVKGRLTLSRDKGKNTVYLQLNSLKPEDTAVYYCYGFGVREGRGNVYWGQGTQVTVSGGGGSGGGGSGGGGSGGGGSEVQLLESGGGLVQPGGSLRLSCAASGFTFGNYDMAWVRQAPGKRPEWVSSIDTGGDITHYADSVKGRFTISRDNAKNTLYLQMNSLRPEDTAVYWCATDEEYALGPNEFDYYGQGTLVTVS . Value? 1100
